Literature-derived IC50 for ERAP1 (Homo sapiens) follows.

### Prompt I'm curious: which IC50 was measured for COc1ccc(C(=O)O)cc1S(=O)(=O)Nc1cc(Cl)ccc1N1CCCCC1 tested on ERAP1 (Homo sapiens)?
### Response < 500 nM

### Prompt I'm curious: which IC50 was measured for CCc1ccc(C(=O)O)cc1S(=O)(=O)Nc1cc(S(C)(=O)=O)ccc1N1CCC[C@H](O)C1 tested on ERAP1 (Homo sapiens)?
### Response < 500 nM

### Prompt I'm curious: which IC50 was measured for COC1CCCC1Oc1cc(Cl)c(C#N)cc1NS(=O)(=O)c1cc(C(=O)O)ccc1C1CC1 (single isomer, unassigned) tested on ERAP1 (Homo sapiens)?
### Response < 1 nM

### Prompt I'm curious: which IC50 was measured for COc1ccc(C(=O)O)cc1S(=O)(=O)Nc1cc(C#N)ccc1-c1ccccn1 tested on ERAP1 (Homo sapiens)?
### Response < 500 nM

### Prompt I'm curious: which IC50 was measured for C#CC1(Oc2cc(Cl)c(C#N)cc2NS(=O)(=O)c2cc(C(=O)O)ccc2C2CC2)CCC1 tested on ERAP1 (Homo sapiens)?
### Response 1 to 5 nM

### Prompt I'm curious: which IC50 was measured for CCc1ccc(C(=O)O)cc1S(=O)(=O)Nc1cc(C#N)ccc1-c1ccc(C)s1 tested on ERAP1 (Homo sapiens)?
### Response < 500 nM

### Prompt I'm curious: which IC50 was measured for CCc1ccc(C(=O)O)cc1S(=O)(=O)Nc1cc(-c2nnc(C)o2)ccc1N1CCCCC1 tested on ERAP1 (Homo sapiens)?
### Response < 500 nM

### Prompt I'm curious: which IC50 was measured for CCc1ccc(C(=O)O)cc1S(=O)(=O)Nc1cc(S(C)(=O)=O)ccc1-n1cccc1 tested on ERAP1 (Homo sapiens)?
### Response < 500 nM

### Prompt I'm curious: which IC50 was measured for CCc1ccc(C(=O)O)cc1S(=O)(=O)Nc1cc(C(N)=O)ccc1-c1ccccn1 tested on ERAP1 (Homo sapiens)?
### Response < 500 nM

### Prompt I'm curious: which IC50 was measured for CS(=O)(=O)c1ccc(-c2cccs2)c(NS(=O)(=O)c2cc(C(=O)O)ccc2C2CC2)c1 tested on ERAP1 (Homo sapiens)?
### Response < 500 nM

### Prompt I'm curious: which IC50 was measured for N#Cc1cc(NS(=O)(=O)c2cc(C(=O)O)ccc2C2CC2)c(OCC2(F)COC2)cc1Cl tested on ERAP1 (Homo sapiens)?
### Response 1 to 5 nM

### Prompt I'm curious: which IC50 was measured for N#Cc1cc(NS(=O)(=O)c2cc(C(=O)O)ccc2C2CC2)c(N2CCCCC2)cc1F tested on ERAP1 (Homo sapiens)?
### Response < 500 nM

### Prompt I'm curious: which IC50 was measured for O=C(O)c1cc(Cl)cc(S(=O)(=O)Nc2cc(C(F)(F)F)ccc2N2CCCCC2)c1 tested on ERAP1 (Homo sapiens)?
### Response < 5000 nM

### Prompt I'm curious: which IC50 was measured for COc1ccc(C(=O)O)cc1S(=O)(=O)Nc1cc(C#N)c(F)cc1-c1cccc(F)c1 tested on ERAP1 (Homo sapiens)?
### Response < 500 nM

### Prompt I'm curious: which IC50 was measured for Cc1ccc(-c2ccc(S(C)(=O)=O)cc2NS(=O)(=O)c2cc(C(=O)O)ccc2C2CC2)s1 tested on ERAP1 (Homo sapiens)?
### Response < 500 nM

### Prompt I'm curious: which IC50 was measured for N#Cc1cc(NS(=O)(=O)c2cc(C(=O)O)ccc2C2CC2)c(-c2nccs2)cc1F tested on ERAP1 (Homo sapiens)?
### Response < 500 nM

### Prompt I'm curious: which IC50 was measured for O=C(O)c1ccc(C2CC2)c(S(=O)(=O)Nc2cc(-c3ccns3)c(Cl)cc2OC2CC(F)(F)C2)c1 tested on ERAP1 (Homo sapiens)?
### Response < 1 nM

### Prompt I'm curious: which IC50 was measured for COc1ccc(C(=O)O)cc1S(=O)(=O)Nc1cc(C(F)(F)F)ccc1N1CCC(C)(O)CC1 tested on ERAP1 (Homo sapiens)?
### Response < 500 nM

### Prompt I'm curious: which IC50 was measured for CCc1ccc(C(=O)O)cc1S(=O)(=O)Nc1cc(S(C)(=O)=O)ccc1-c1cccc(F)c1 tested on ERAP1 (Homo sapiens)?
### Response < 500 nM

### Prompt I'm curious: which IC50 was measured for CCc1ccc(C(=O)O)cc1S(=O)(=O)Nc1cc(S(C)(=O)=O)ccc1-c1ccccc1 tested on ERAP1 (Homo sapiens)?
### Response < 500 nM

### Prompt I'm curious: which IC50 was measured for COc1ccc(C(=O)O)cc1S(=O)(=O)Nc1cc(C(F)(F)F)ccc1N1CCC2(CC1)OCc1ccccc12 tested on ERAP1 (Homo sapiens)?
### Response < 500 nM

### Prompt I'm curious: which IC50 was measured for N#Cc1cc(NS(=O)(=O)c2cc(C(=O)O)ccc2C2CC2)c(O[C@H]2CCOC2)cc1Cl tested on ERAP1 (Homo sapiens)?
### Response 1 to 5 nM

### Prompt I'm curious: which IC50 was measured for CCc1ccc(C(=O)O)cc1S(=O)(=O)Nc1cc(C(F)(F)F)ccc1-c1nccs1 tested on ERAP1 (Homo sapiens)?
### Response < 500 nM

### Prompt I'm curious: which IC50 was measured for CCc1ccc(C(=O)O)cc1S(=O)(=O)Nc1cc(C(F)(F)F)ccc1N1CCC[C@@H](O)C1 tested on ERAP1 (Homo sapiens)?
### Response < 500 nM

### Prompt I'm curious: which IC50 was measured for Cc1oncc1-c1ccc(OC2CCCC2)c(NS(=O)(=O)c2cc(C(=O)O)ccc2C2CC2)c1 tested on ERAP1 (Homo sapiens)?
### Response < 1 nM
